These measurements were taken from ChEMBL document CHEMBL5360614.

Below, each of the molecules is paired with its reported MIC value.
# System: Staphylococcus aureus
# TEST_METHOD_NOTES: Antibacterial activity against Staphylococcus aureus MTCC-96 assessed as reduction in bacterial growth incubated for 14 to 16 hrs by microbroth dilution method
# Type: functional
# SETUP_CONDITIONS: time 14-16 hrs
// note: answer is a bare numeric in µM

Previously resolved entries follow.
>>> reported_result("[Cl-].[Cl-].[Zn+2] [ZINC CHLORIDE]")
1560
>>> reported_result("O=C(O)c1cn(C2CC2)c2cc(N3CCNCC3)c(F)cc2c1=O")
0.45

Could you now look at the following molecule, please?
Qu. Bench note: what MIC did FC(F)(F)c1cc(NC(=S)Nc2cccc3ccc(-n4ccnc4)nc23)cc(C(F)(F)F)c1 show?
Ans. 12.5
